- tested system: PAR2 (HT-29 cells) (Homo sapiens)
- Construct: host or cells: HT-29
- test summary: Ca FLIPR TETRA assay, ANTAGONIST mode, activator 8 μM SLIGKV
- Assay type: cell-based
- measurement parameters: HT-29 cells, activator 8 μM SLIGKV; maximal antagonist concentration per Method (A: 0.1, 1 or 2 μM; B: 50 μM)
pIC50: −log10 of the molar value.
quantity measured: pIC50

CO[C@@H](C(=O)N1CCN(C(=O)c2cc3nc(-c4ccc(F)cc4)cc(C(C)C)c3o2)C(C)(C)C1)c1ccccc1 [Example I-66]
7.89
C[C@H]1CN(C(=O)c2cc3nc(-c4ccc(F)cc4)nc(C4(C)CC4)c3o2)CCN1C(=O)[C@H](O)CC(C)(C)C [Example I-128]
6.27
CC[C@H](O)C(=O)N1CCN(C(=O)c2cc3nc(-c4ccc(F)cc4)cc(C4(C)CC4)c3o2)C(C)(C)C1 [Example I-59]
7.68
CC(C)c1cc(-c2ccc(F)cc2)nc2cc(C(=O)N3CCN(C(=O)C4(O)CCC4)[C@@H](C)C3)oc12 [Example I-89]
6.00
CC(C)(C)c1cc(C2CC3(CCC3)C2)nc2cc(C(=O)N3CCN(C(=O)CCC(=O)O)CC3(C)C)oc12 [Example I-292]
8.46

[I] CC(Oc1ccccc1)C(=O)N1CCN(C(=O)c2cc3nc(-c4ccc(F)cc4)cc(C(C)C)c3o2)C[C@@H]1C (stereo partly shown) [Example I-85]
[II] CC(C)c1cc(-c2ccc(F)cc2)nc2cc(C(=O)N3CCN(C(=O)[C@H]4C[C@@](C)(O)C4)CC3(C)C)oc12 [Example I-136]
Req: Please let me know which one, I or II , has a lower measured pIC50 value. Kindly give the label for the entry you pick.
Resp: I
(I: 7.52, II: 8.19)

---

- tested system: PAR2 (HT-29 cells) (Homo sapiens, UniProt P55085)
- Construct: host or cells: HT-29
- test summary: Ca FLIPR TETRA assay, ANTAGONIST mode, activator 8 μM SLIGKV
- Format: cell-based
- measurement parameters: HT-29 cells, activator 8 μM SLIGKV; maximal antagonist concentration per Method (A: 0.1, 1 or 2 μM; B: 50 μM)
quantity measured: IC50 (nM)

CC(C)(C)c1cc(-c2ccc(F)cc2)nc2cc(C(=O)N3CCN(S(=O)(=O)c4c[nH]cn4)CC3(C)C)oc12
4

[A] C[C@H]1CN(C(=O)c2cc3nc(-c4ccc(F)cc4)cc(C4(C)CC4)c3o2)CCN1C(=O)C1(O)CC1
[B] CCCCC(O)C(=O)N1CCN(C(=O)c2cc3nc(-c4ccc(F)cc4)cc(C4(C)CC4)c3o2)C(C)(C)C1 (stereo not shown)
[C] COCCOCC(=O)N1CCN(C(=O)c2cc3nc(-c4ccc(F)cc4)cc(C4(C)CC4)c3o2)C(C)(C)C1
Req: Reorder the items by IC50, least to greatest. Labels, requested order.
Resp: B, C, A
(B: 4.6 nM, C: 57 nM, A: 1100 nM)

---

- tested system: PAR2 (HT-29 cells) (Homo sapiens, UniProt P55085)
- Construct: host or cells: HT-29
- test summary: Ca FLIPR TETRA assay, ANTAGONIST mode, activator 8 μM SLIGKV
- Format: cell-based
- measurement parameters: HT-29 cells, activator 8 μM SLIGKV; maximal antagonist concentration per Method (A: 0.1, 1 or 2 μM; B: 50 μM)
quantity measured: IC50 (nM)

Use the examples below as a reference point.
CC(C)c1cc(-c2ccc(F)cc2)nc2cc(C(=O)N3CCN(C(=O)C4CCCC4)CC3(C)C)oc12 [Example I-71]
2.6
Cc1n[nH]cc1N1CCN(C(=O)c2cc3nc(-c4ccc(F)cc4)cc(C(C)(C)C)c3o2)C(C)(C)C1=O [Example I-250]
15
CC[C@H](C(=O)N1CCN(C(=O)c2cc3nc(-c4ccc(F)cc4)cc(C4(C)CC4)c3o2)C(C)(C)C1)c1ccccc1 [Example I-47]
29
C[C@H]1CN(C(=O)c2cc3nc(-c4ccc(F)cc4)cc(C4(C)CC4)c3o2)CCN1C(=O)C(O)c1ccc(F)cc1 (some centres unmarked) [Example I-114]
2.2
CC[C@@H](O)C(=O)N1CCN(C(=O)c2cc3nc(-c4ccc(F)cc4)cc(C4(C)CC4)c3o2)C(C)(C)C1 [Example I-28]
4.2
CC1(C)C(=O)NCCN1C(=O)c1cc2nc(-c3ccc(F)cc3)cc(C3CCC(F)(F)CC3)c2o1 [Example I-212]
13

[A] C[C@H]1CN(C(=O)c2cc3nc(-c4ccc(F)cc4)cc(C4(C)CC4)c3o2)CCN1C(=O)C1CC1 [Example I-116]
[B] CC(C)(C(=O)O)C(=O)N1CCN(C(=O)c2cc3nc(-c4ccc(F)cc4)cc(C(C)(C)C)c3o2)C(C)(C)C1 [Example I-195]
Req: Please let me know which one, A or B , has a lower measured IC50 value. Kindly give the label for the entry you pick.
Resp: B
(B: 96 nM, A: 350 nM)

---

- tested system: PAR2 (HT-29 cells) (Homo sapiens, UniProt P55085)
- Construct: host or cells: HT-29
- test summary: Ca FLIPR TETRA assay, ANTAGONIST mode, activator 3.1 U/mL trypsin
- Type: cell-based
- measurement parameters: HT-29 cells, activator 3.1 U/mL trypsin; maximal antagonist concentration per Method (A: 0.1, 1 or 2 μM; B: 50 μM)
quantity measured: IC50 (nM)

[A] CCC(CC)c1cc(-c2ccc(F)cc2)nc2cc(C(=O)N3CCNC(=O)C3(C)C)oc12 [Example I-233]
[B] CC(C)c1cc(-c2ccc(F)cc2)nc2cc(C(=O)N3CCN(C(=O)C4(C)CC4)CC3(C)C)oc12 [Example I-19]
[C] CC(C)(C)c1cc(C2CCC(F)(F)CC2)nc2cc(C(=O)N3CCN(C(=O)[C@H]4CC[C@@H](O)CC4)CC3(C)C)oc12 [Example I-225]
[D] CC(C)c1cc(-c2ccc(F)cc2)nc2cc(C(=O)N3CCN(C(=O)C4(O)CCOCC4)C[C@@H]3C)oc12 [Example I-105]
Req: Rank by IC50 (largest to smallest). Labels, requested order.
Resp: D, C, A, B

---

- tested system: PAR2 (HT-29 cells) (Homo sapiens)
- Construct: host or cells: HT-29
- Sequence (P55085 26-397): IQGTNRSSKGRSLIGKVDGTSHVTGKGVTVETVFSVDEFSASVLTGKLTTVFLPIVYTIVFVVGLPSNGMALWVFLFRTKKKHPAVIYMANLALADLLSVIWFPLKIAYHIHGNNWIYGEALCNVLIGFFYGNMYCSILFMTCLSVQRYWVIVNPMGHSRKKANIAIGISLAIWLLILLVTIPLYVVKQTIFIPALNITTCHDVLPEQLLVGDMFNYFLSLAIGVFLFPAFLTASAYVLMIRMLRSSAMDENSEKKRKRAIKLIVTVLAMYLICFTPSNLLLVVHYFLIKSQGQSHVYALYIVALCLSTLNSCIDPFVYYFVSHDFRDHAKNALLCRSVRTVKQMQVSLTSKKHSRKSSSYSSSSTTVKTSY
- test summary: Ca FLIPR TETRA assay, ANTAGONIST mode, activator 3.1 U/mL trypsin
- Format: cell-based
- measurement parameters: HT-29 cells; activator 3.1 U/mL trypsin; Method A: maximal concentration of antagonist 0.1, 1 or 2 μM
pIC50: −log10 of the molar value.
quantity measured: pIC50

Cc1cc(C(=O)O)c(N2CCN(C(=O)c3cc4nc(-c5ccc(Cl)c(F)c5)cc(C(C)(C)C)c4o3)C(C)(C)C2)nn1 [Example I-528]
6.60
CC1(C)CCC(c2cc(C(C)(C)C)c3oc(C(=O)N4CCN(c5ncc(C(=O)O)cc5F)CC4(C)C)cc3n2)CC1 [Example I-391]
9.40
CC(C)(C)c1cc(-c2ccc(F)cc2)nc2cc(C(=O)N3CCN(N4CCC(=O)NCC4(C)C)CC3(C)C)oc12 [Example I-453]
6.18
CN1CC(C)(C)N(C(=O)c2cc3nc(-c4ccc(Cl)c(F)c4)cc(C(C)(C)C)c3o2)CCC1=O [Example I-526]
6.83
Cc1cc(C(=O)O)nc(N2CCN(C(=O)c3cc4nc(-c5ccc(Cl)c(F)c5)cc(C(C)(C)C)c4o3)C(C)(C)C2)c1 [Example I-494]
10.00

[A] CC(C)(C)c1cc(-c2ccc(Cl)c(F)c2)nc2cc(C(=O)N3CCN(C(=O)CC4(C(=O)O)CCC4)CC3(C)C)oc12 [Example I-372]
[B] CN(CC(=O)O)CC(=O)N1CCN(C(=O)c2cc3nc(-c4ccc(Cl)cc4)cc(C(C)(C)C)c3o2)C(C)(C)C1 [Example I-347]
Req: Between A and B , which one shows the larger pIC50 value? Kindly give the label for the entry you pick.
Resp: A
(A: 9.52, B: 6.30)

[A] CC(C)(C)c1cc(-c2ccc(Cl)cc2)nc2cc(C(=O)N3CCN(C(=O)[C@H]4CC[C@@](C)(C(=O)O)CC4)CC3(C)C)oc12 [Example I-423]
[B] CC1(C)CCC(c2cc(C(C)(C)C)c3oc(C(=O)N4CCC(=O)NCC4(C)C)cc3n2)CC1 [Example I-489]
Req: Between A and B , which one shows the larger pIC50 value? Kindly give the label for the entry you pick.
Resp: A

[a] CC1(C)CCC(c2cc(C(C)(C)C)c3oc(C(=O)N4CCN(c5cnc(C(=O)O)cn5)CC4(C)C)cc3n2)CC1 [Example I-451]
[b] Cc1nc(N2CCN(C(=O)c3cc4nc(C5CCC(C)(C)CC5)cc(C(C)(C)C)c4o3)C(C)(C)C2)ncc1C(=O)O [Example I-465]
[c] CC(C)(C)c1cc(-c2ccc(Cl)c(F)c2)nc2cc(C(=O)N3CCC(CC(=O)NS(=O)(=O)C(F)(F)F)CC3(C)C)oc12 (centres unmarked) [Example I-433]
Req: Reorder the items by pIC50, least to greatest. Labels, requested order.
Resp: a, c, b
(a: 8.23, c: 8.47, b: 8.92)
